procedure summary: Cytotoxicity determination in HepG2.2.15 cells (CCK-8 cell viability)
Format: cell-based
run parameters: human, 6 days treatment, CCK-8 assay, highest concentration 100 uM
recorded metric: CC50 at 6 days (µM)
Respond with the bare value in µM.

>>> val("CCOC(=O)C1=C(CN2CC(F)(F)[C@H]3[C@@H]2CC(=O)N3CCCC(C)(C)C(=O)O)NC(c2nccs2)=N[C@H]1c1cccc(F)c1C (single isomer, unassigned) [Compound 156]")
10.3
>>> val("CCOC(=O)C1=C(CN2CC(F)(F)[C@H]3[C@@H]2CCN3CCC(C)(C)C(=O)O)NC(c2nccn2C)=N[C@H]1c1cccc(F)c1C (single isomer, unassigned) [Compound 146]")
32.2

Recorded CC50 at 6 days for COC(=O)C1=C(CN2CC(F)(F)[C@H]3[C@@H]2CCN3C[C@H](C)C(=O)O)NC(c2nccs2)=N[C@H]1c1ccc(F)c(F)c1Cl (single isomer, unassigned) [Compound 134B] , please? 24.2

---

procedure summary: Cytotoxicity determination in HepG2.2.15 cells (CCK-8 cell viability)
Assay type: cell-based
run parameters: human, 6 days treatment, CCK-8 assay, highest concentration 100 uM
Experimental: HepG2.2.15 (the HepG2.2.15 cell line can be produced by transfection of the HepG2 cell line as described in Sells, Chen, and Acs 1987 (Proc. Natl. Acad. Sci. USA 84: 1005-1009), and the HepG2 cell line is available from ATCC® under number HIB-8065™) […] Cell viability was determined by CCK-8 assay. […] The absorbance at 450 nm wavelength and the absorbance at 630 nm wavelength as reference was measured. 2) DATA Analysis EC50 and CC50 values are calculated by the GRAPTIPAD PRISM software.
CC50 at 6 days values, listed per item

>>> val("CCOC(=O)C1=C(CN2CC(F)(F)[C@@H]3C(=O)N([C@H]4CC[C@@H](C(=O)O)CC4)C[C@@H]32)NC(c2nccs2)=N[C@H]1c1cccc(F)c1C (single isomer, unassigned) [Compound 44A]")
"> 100 µM"
>>> val("CCOC(=O)C1=C(CN2CC(F)(F)[C@@H]3CN(CC(C)(C)C(=O)O)C[C@@H]32)NC(c2nccs2)=N[C@@H]1c1ccc(F)nc1C (single isomer, unassigned)")
"> 100 µM"
>>> val("CCOC(=O)C1=C(CN2CC(F)(F)[C@@H]3[C@H]2CN(C)N3CC2CC(C)(C(=O)O)C2)NC(c2nccs2)=N[C@H]1c1cccc(F)c1C (single isomer, unassigned)")
"> 6.2 µM"
>>> val("CCOC(=O)C1=C(CN2CC(F)(F)[C@@H]3CN(S(=O)(=O)[C@H]4C[C@@](C)(C(=O)O)C4)C[C@@H]32)NC(c2nccs2)=N[C@H]1c1cccc(F)c1C (single isomer, unassigned) [Compound 205B]")
"> 50 µM"

Turning now to a further record.
Recorded CC50 at 6 days for COC(=O)C1=C(CN2CC(F)(F)[C@@H]3[C@H]2CON3CCC(C)(C)C(=O)O)NC(c2nccs2)=N[C@H]1c1ccc(F)c(F)c1Cl (single isomer, unassigned) , please? 50 µM

---

pEC50 values, listed per item
System: HBV
procedure summary: Anti-HBV activity in HepG2.2.15 cells (HBV DNA in culture medium by qPCR)
Type: cell-based
run parameters: Hepatitis B virus, HepG2.2.15, 144 h, HepG2.2.15 cells, 6 days treatment, HBV DNA in culture medium quantified by real-time PCR; read-out: EC50
Reminder that pEC50 is minus the log10 of a molar concentration.

The following compounds have reported results that may help.
>>> val("CCOC(=O)C1=C(CN2CC(F)(F)[C@@H]3C(=O)N(C(=O)NCC(C)(C)C(=O)O)C[C@@H]32)NC(c2nccs2)=N[C@H]1c1cccc(F)c1C (single isomer, unassigned) [Compound 188]")
7.20
>>> val("CCOC(=O)C1=C(CN2C[C@H](F)[C@@]3(F)C(=O)N(CC(C)(C)C(=O)O)C[C@@H]23)NC(c2nccs2)=N[C@H]1c1cccc(F)c1C (single isomer, unassigned) [Compound 204C]")
8.15
>>> val("CCOC(=O)C1=C(CN2CC(F)(F)[C@@H]3[C@H]2CON3CCC(C)(C)C(=O)O)NC(c2nccs2)=N[C@H]1c1ccc(F)c(F)c1F (single isomer, unassigned) [Compound 175]")
8.10
>>> val("COC(=O)C1=C(CN2CC(F)(F)[C@@H]3[C@H]2CN(C)N3CCC(C)(C)C(=O)O)NC(c2nccs2)=N[C@H]1c1ccc(F)cc1Cl (single isomer, unassigned) [Compound 94]")
7.85

Missing value: pEC50, HBV, entry CCOC(=O)C1=C(CN2CC(F)(F)[C@H]3CN([C@H](C)C(=O)O)C[C@H]32)NC(c2nccs2)=N[C@H]1c1cccc(F)c1C (single isomer, unassigned) [Compound 14E] . Fill in? 7.21

Missing value: pEC50, HBV, entry CCOC(=O)C1=C(CN2CC(F)(F)[C@@H]3CN(C(=O)C4(C(=O)O)CC4)C[C@@H]32)NC(c2nccs2)=N[C@H]1c1cccc(F)c1C (single isomer, unassigned) [Compound 10] . Fill in? 7.09

Missing value: pEC50, HBV, entry CCOC(=O)C1=C(CN2CC[C@@]3(F)C(=O)N(CCC(C)(C)C(=O)O)C[C@@H]23)NC(c2nccs2)=N[C@H]1c1cccc(F)c1C (single isomer, unassigned) [Compound 50A] . Fill in? 7.39

Missing value: pEC50, HBV, entry CCOC(=O)C1=C(CN2C[C@H](F)[C@H]3[C@@H]2CON3CCC(C)(C)C(=O)O)NC(c2nccs2)=N[C@H]1c1cccc(F)c1C (single isomer, unassigned) [Compound 177] . Fill in? 7.82

Missing value: pEC50, HBV, entry CCOC(=O)C1=C(CN2CC(F)(F)[C@@H]3CN(CC(C)(C)C(=O)O)C[C@@H]32)NC(c2nccs2)=N[C@@H]1c1ccc(F)nc1C (single isomer, unassigned) [Compound 201] . Fill in? 7.14

These data points were gathered from patent US20230083012A1.
